Molecular target: human Cot/Tpl2 kinase (Homo sapiens)
Construct: human Cot/Tpl2 kinase construct encoding residues 30-398; 6His (N); made in house; host or cells: Sf9 insect cells, baculovirus system (BD Biosciences)
Assay: Tpl2/Cot kinase assay: GST-MEK1 phosphorylation detected by ELISA (DELFIA Eu)
Type: biochemical
Conditions: Table 2; Tpl2/Cot kinase, GST-MEK1 substrate, 50 uM ATP
parameter.measured: IC50 (µM)

Below, 7 molecules whose answers are already recorded.
- N#Cc1cnc2ccc(NCc3cccc(C(N)=O)c3)cc2c1Nc1ccc(F)c(Cl)c1: 0.46
- CN1CCC(n2cc(CN(C)c3cc(Br)c4ncc(C#N)c(Nc5ccc(F)c(Cl)c5)c4c3)nn2)CC1: 0.022
- COCCn1cc(CNc2cc(Cl)c3ncc(C#N)c(Nc4ccc(F)c(Cl)c4)c3c2)nn1: 0.02
- N#Cc1cnc2c(Cl)cc(NCc3nc[nH]n3)cc2c1Nc1ccc(F)c(Cl)c1: 0.1
- N#Cc1cnc2ccc(NCc3cccc[n+]3[O-])cc2c1NC1CCCC1: 1.3
- C[S+]([O-])Cn1cc(CNc2cc(Br)c3ncc(C#N)c(Nc4ccc(F)c(Cl)c4)c3c2)nn1 (stereo not shown): 0.12
- N#Cc1cnc2c(Br)cc(NCc3cnc4ccccn34)cc2c1Nc1ccc(F)c(Cl)c1: 0.28

(A) CC(CNc1cc(Cl)c2ncc(C#N)c(Nc3ccc(F)c(Cl)c3)c2c1)c1ccncc1 (stereo not shown)
(B) Cn1nccc1CNc1cc(Br)c2ncc(C#N)c(Nc3ccc(F)c(Cl)c3)c2c1
Given the listed records, identify the one among A and B with higher IC50. Return value: the label identifying the chosen record.
A

----------
Target: human Cot/Tpl2 kinase (Homo sapiens)
Construct: human Cot/Tpl2 kinase construct encoding residues 30-398; 6His (N); made in house; host or cells: Sf9 insect cells, baculovirus system (BD Biosciences)
Assay: Tpl2/Cot kinase assay: GST-MEK1 phosphorylation detected by ELISA (DELFIA Eu)
Type: biochemical
Settings: 0.4 nM Tpl2, 35 nM GST-MEK1, 50 uM ATP, 1 h at 30° C.
parameter.measured: IC50 (nM)

Below are worked cases with known answers.
• N#Cc1cnc2c(CC(O)CO)cc(NCc3cnc[nH]3)cc2c1Nc1ccc(F)c(Cl)c1 (centres unmarked) [Example 314] = 910
• N#Cc1cnc2ccc(NCc3cccc(S(N)(=O)=O)c3)cc2c1Nc1ccc(F)c(Cl)c1 [Example 168] = 150
• N#Cc1cnc2ccc(NCc3cnc(S(=O)(=O)c4ccccc4)s3)cc2c1Nc1ccc(F)c(Cl)c1 [Example 245] = 910
• Cc1cc(CNc2cc(C(=O)N(C)C)c3ncc(C#N)c(Nc4ccc(F)c(Cl)c4)c3c2)n(C)n1 [Example 90] = 1700
• N#Cc1cnc2c(C(F)(F)F)cc(NCc3cnc[nH]3)cc2c1Nc1ccc(F)c(Cl)c1 [Example 229] = 190
• N#Cc1cnc2c(Cl)cc(NCc3ccc(S(N)(=O)=O)cc3)cc2c1Nc1ccc(F)c(Cl)c1 [Example 186] = 45
• N#Cc1cnc2ccc(NCc3nccn3CC(=O)N3CCOCC3)cc2c1Nc1ccc(F)c(Cl)c1 [Example 138] = 27
• Cc1cc(CNc2ccc3ncc(C#N)c(Nc4ccc(F)c(Cl)c4)c3c2)n[nH]1 [Example 31] = 110

(A) N#Cc1cnc2c(Cl)cc(NCc3ccnc4ccccc34)cc2c1Nc1ccc(F)c(Cl)c1 [Example 278]
(B) CS(=O)(=O)Nc1cccc(CNc2ccc3ncc(C#N)c(Nc4ccc(F)c(Cl)c4)c3c2)c1 [Example 18]
(C) N#Cc1cnc2ccc(NCc3cccnc3)cc2c1NC1CCCCCC1 [Example 246]
Order each entry by recorded IC50, climbing from the minimum. The response must list the labels following the requested ordering.
B, A, C

(P) N#Cc1cnc2ccc(NCc3cccnc3)cc2c1Nc1ccc(C(N)=O)cc1 [Example 99]
(Q) CC(C)(C)OC(=O)N1CCC(CNc2ccc3ncc(C#N)c(Nc4ccc(F)c(Cl)c4)c3c2)C1 (centres unmarked) [Example 52]
Please indicate which item has the smaller measured IC50: P versus Q // respond with label for picked entry
Q

(I) N#Cc1cnc2ccc(NCc3cnc[nH]3)cc2c1Nc1cccc(Br)c1 [Example 169]
(II) CCOC(=O)CNc1ccc2ncc(C#N)c(Nc3ccc(F)c(Cl)c3)c2c1 [Example 174]
(III) CC(=O)Nc1ccc(CNc2ccc3ncc(C#N)c(Nc4ccc(F)c(Cl)c4)c3c2)cc1 [Example 16]
Arrange the 3 entries by IC50 so the values rise. Returns: the labels arranged in the requested order.
I, III, II

----------
Biological target: human Cot/Tpl2 kinase (Homo sapiens, UniProt P41279)
Construct: human Cot/Tpl2 kinase construct encoding residues 30-398; 6His (N); made in house; host or cells: Sf9 insect cells, baculovirus system (BD Biosciences)
Sequence (P41279 30-398): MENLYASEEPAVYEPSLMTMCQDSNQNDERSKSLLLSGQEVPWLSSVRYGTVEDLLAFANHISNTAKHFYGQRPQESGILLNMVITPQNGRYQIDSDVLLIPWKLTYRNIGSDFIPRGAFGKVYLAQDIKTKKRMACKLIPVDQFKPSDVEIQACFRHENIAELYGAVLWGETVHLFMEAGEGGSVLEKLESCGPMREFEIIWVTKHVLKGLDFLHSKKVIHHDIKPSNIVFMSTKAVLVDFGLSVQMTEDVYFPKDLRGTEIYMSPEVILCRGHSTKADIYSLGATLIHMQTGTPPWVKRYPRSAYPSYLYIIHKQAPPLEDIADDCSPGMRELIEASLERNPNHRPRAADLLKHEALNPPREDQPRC
Assay: Tpl2/Cot kinase assay: GST-MEK1 phosphorylation detected by ELISA (DELFIA Eu)
Format: biochemical
Conditions: Table 2; Tpl2/Cot kinase, GST-MEK1 substrate, 50 uM ATP
pIC50: −log10 of the molar value.
parameter.measured: pIC50

Solved entries:
- CSCn1cc(CNc2cc(Br)c3ncc(C#N)c(Nc4ccc(F)c(Cl)c4)c3c2)nn1 [Example 530]: 7.92
- N#Cc1cnc2ccc(NCc3ccccn3)cc2c1Nc1ccccc1 [Example 361]: 6.60
- N#Cc1cnc2c(Cl)cc(NCc3cn(CCOC(N)=O)nn3)cc2c1Nc1ccc(F)c(Cl)c1 [Example 599]: 8.23
- CN(CCn1cc(CNc2cc(Br)c3ncc(C#N)c(Nc4ccc(F)c(Cl)c4)c3c2)nn1)C(=O)OC(C)(C)C [Example 500]: 7.17
- N#Cc1cnc2ccc(NCc3ccc[n+]([O-])c3)cc2c1Nc1ccc(F)c(Cl)c1 [Example 384]: 6.89

(P) N#Cc1cnc2c(Br)cc(NCc3cn(C4CCCC4)cn3)cc2c1Nc1ccc(F)c(Cl)c1 [Example 632]
(Q) N#Cc1cnc2c(Br)cc(NCc3cn(CCCO)nn3)cc2c1Nc1ccc(F)c(Cl)c1 [Example 523]
Could you point out whether the larger pIC50 belongs to P or to Q ? Which one? Tell me its label.
Q

----------
Target: human Cot/Tpl2 kinase (Homo sapiens, UniProt P41279)
Construct: human Cot/Tpl2 kinase construct encoding residues 30-398; 6His (N); made in house; host or cells: Sf9 insect cells, baculovirus system (BD Biosciences)
Test: Tpl2/Cot kinase assay: GST-MEK1 phosphorylation detected by ELISA (DELFIA Eu)
Format: biochemical
Conditions: Tpl2/Cot kinase, GST-MEK1 substrate, 50 uM ATP
parameter.measured: IC50 (µM)

- COCCOCCn1cc(CNc2cc(Br)c3ncc(C#N)c(Nc4ccc(F)c(Cl)c4)c3c2)nn1 [Example 743]: 0.1

(A) COCCCc1nc[nH]c1CNc1cc(Br)c2ncc(C#N)c(Nc3ccc(F)c(Cl)c3)c2c1 [Example 683]
(B) CS(=O)(=O)CCn1cc(CNc2cc(Br)c3ncc(C#N)c(Nc4ccc(F)c(Cl)c4)c3c2)nn1 [Example 694]
Compare the recorded IC50 of A and B ; state which is larger. State your choice using its label.
B

----------
Molecular target: human Cot/Tpl2 kinase (Homo sapiens, UniProt P41279)
Construct: human Cot/Tpl2 kinase construct encoding residues 30-398; 6His (N); made in house; host or cells: Sf9 insect cells, baculovirus system (BD Biosciences)
Test: Tpl2/Cot kinase assay: GST-MEK1 phosphorylation detected by ELISA (DELFIA Eu)
Type: biochemical
Settings: Table 2; Tpl2/Cot kinase, GST-MEK1 substrate, 50 uM ATP
Procedure: Sf9 cells expressing the kinase were lysed in 50 mM NaPhosphate pH=8; 300 mM NaCl; 5 mM imidazole; 0.1 mM EGTA; 25 mM beta-glycerophosphate; 1% TX-100, 1% glycerol; 6 mM beta-mercaptoethanol and protease inhibitors. […] Tpl2/Cot activity was directly assayed using GST-MEK1 as a substrate. GST-MEK1 phosphorylation on serine residues 217 and 221 was detected by ELISA. […] After a final wash, Eu detection solution was added to each well and the Eu signal was measured in a Wallac Victor^2 Multilabel Counter. […]
parameter.measured: IC50 (nM)

Answered examples (3):
- N#Cc1cnc2c(Cl)cc(NCC(=O)O)cc2c1Nc1ccc(F)c(Cl)c1: 51
- CS(=O)(=O)Cn1cc(CNc2cc(Br)c3ncc(C#N)c(Nc4ccc(F)c(Cl)c4)c3c2)nn1: 33
- CN1CCCN(CCCn2cc(CNc3cc(Cl)c4ncc(C#N)c(Nc5ccc(F)c(Cl)c5)c4c3)nn2)CC1: 48

(1) CN1CCN(CCCn2cc(CNc3cc(Br)c4ncc(C#N)c(Nc5ccc(F)c(Cl)c5)c4c3)nn2)CC1
(2) N#Cc1cnc2ccc(NCc3cnc[nH]3)cc2c1NC1CCCC1
(3) N#Cc1cnc2ccc(N)cc2c1Nc1ccc(Cc2ccccc2)cc1
(4) N#Cc1cnc2c(Cl)cc(NCc3cncn3CCN3CCOCC3)cc2c1Nc1ccc(F)c(Cl)c1
(5) N#Cc1cnc2c(Br)cc(NCc3cn(CCc4ccccn4)nn3)cc2c1Nc1ccc(F)c(Cl)c1
// ranking: key=IC50, reverse=True Show the ranking through the labels, in the order asked for.
2, 4, 3, 1, 5
(2: 300 nM, 4: 62 nM, 3: 43 nM, 1: 29 nM, 5: 3.4 nM)

Just for reference, patent US20060264460A1 is where these values come from.
